Numbers sourced from patent US5539119A.

Biological target: δ-receptor (Mus musculus)
Construct: from tissue; host or cells: mouse vas deferens
Sequence (P32300 whole entry): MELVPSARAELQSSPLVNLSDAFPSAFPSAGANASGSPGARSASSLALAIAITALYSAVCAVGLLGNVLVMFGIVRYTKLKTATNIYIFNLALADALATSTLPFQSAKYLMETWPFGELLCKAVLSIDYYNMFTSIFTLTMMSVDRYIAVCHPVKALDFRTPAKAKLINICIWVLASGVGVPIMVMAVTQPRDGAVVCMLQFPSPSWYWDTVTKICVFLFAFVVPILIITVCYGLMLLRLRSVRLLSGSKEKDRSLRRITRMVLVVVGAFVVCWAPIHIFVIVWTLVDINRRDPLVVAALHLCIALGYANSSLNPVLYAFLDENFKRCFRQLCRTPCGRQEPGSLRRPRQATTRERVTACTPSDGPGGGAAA
Assay: Antagonism to DPDPE in Mouse Vas Deferens (MVD)
Settings: (20 nM)
Measurement Type: MVD Antagonism to DPDPE, DR
When you answer, write just the number.

Before answering, review these 3 worked examples.
>>> readout_number("Oc1cccc([C@]23CCN(CC4CC4)C[C@@H]2Cc2c([nH]c4c(F)cccc24)C3)c1 (relative stereo)")
6.22
>>> readout_number("Oc1cccc([C@]23CCN(CC4CC4)C[C@@H]2Cc2c([nH]c4c(Cl)cccc24)C3)c1 (relative stereo)")
3.02
>>> readout_number("Oc1cccc([C@]23CCN(CC4CC4)C[C@@H]2Cc2c([nH]c4ccccc24)C3)c1 (relative stereo) [Compound 19]")
5.17

Now look at this entry.
Form: molecule = Oc1cccc([C@]23CCN(CC4CC4)C[C@@H]2Cc2c([nH]c4ccccc24)C3)c1 (single isomer, unassigned) [Compound 47] ; MVD Antagonism to DPDPE, DR = 4.44

* * *

Here the recorded Ki ratio κ/μ is given for each entry.
Target: μ opioid receptor (Cavia porcellus, UniProt A0ACM8Q262)
Construct: 3H-DAGO (DAMGO) radioligand, cold naloxone
Sequence (A0ACM8Q262 1-400): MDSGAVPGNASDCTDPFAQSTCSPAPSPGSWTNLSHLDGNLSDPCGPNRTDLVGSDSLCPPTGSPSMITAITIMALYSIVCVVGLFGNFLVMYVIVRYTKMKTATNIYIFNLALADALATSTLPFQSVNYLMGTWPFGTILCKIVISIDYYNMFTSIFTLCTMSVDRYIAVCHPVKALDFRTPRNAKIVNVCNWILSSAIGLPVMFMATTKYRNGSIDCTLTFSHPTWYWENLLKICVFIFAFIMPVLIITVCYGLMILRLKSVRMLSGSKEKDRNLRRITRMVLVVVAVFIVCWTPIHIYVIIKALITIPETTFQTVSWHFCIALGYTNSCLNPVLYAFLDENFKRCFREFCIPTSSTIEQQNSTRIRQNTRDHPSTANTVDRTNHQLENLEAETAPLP
Test: Bonding (binding) assay, guinea pig brain homogenate, 3H-DAGO (hot) / naloxone (cold)
Settings: selectivity ratio
// no unit string in output, number only

>>> readout_number("Oc1cccc([C@]23CCN(CC4CC4)C[C@@H]2Cc2c([nH]c4ccc(F)cc24)C3)c1 (relative stereo)")
0.22

As a next step, examine the compound that follows.
// Ki ratio κ/μ lookup, compound = CN1CC[C@]2(c3cccc(O)c3)Cc3c(c4ccccc4n3C)C[C@H]2C1 (relative stereo) , result: 0.31

* * *

System: δ opioid receptor
Assay: Bonding (binding) assay, guinea pig brain homogenate, DPDPE (hot) / DADLE (cold)
Settings: μ/δ; selectivity ratio
Measurement Type: Ki ratio μ/δ
Just the number, please, no unit attached.

>>> readout_number("Oc1cccc([C@]23CCN(CC4CC4)C[C@@H]2Cc2c([nH]c4c(F)cccc24)C3)c1 (relative stereo) [Compound 29]")
618
>>> readout_number("Cn1c2c(c3ccccc31)C[C@H]1CN(CC3CC3)CC[C@]1(c1cccc(O)c1)C2 (relative stereo) [Compound 25]")
552
>>> readout_number("CN1CC[C@]2(c3cccc(O)c3)Cc3[nH]c4c(F)cccc4c3C[C@H]2C1 (relative stereo) [Compound 8]")
77.8
>>> readout_number("Oc1cccc([C@]23CCN(CC4CC4)C[C@]2(O)Cc2c([nH]c4ccccc24)C3)c1 (relative stereo) [Compound 56]")
423

get_value(item= Oc1cccc([C@]23CCN(CC4CC4)C[C@@H]2Cc2c([nH]c4c(Cl)cccc24)C3)c1 (relative stereo) [Compound 40] , readout=Ki ratio μ/δ) returns 199

Entry under test: CN1CC[C@]2(c3cccc(O)c3)Cc3c(c4ccccc4n3C)C[C@H]2C1 (relative stereo) [Compound 12] . Its Ki ratio μ/δ was 10.3

* * *

Test system: δ opioid receptor
Experiment: Bonding (binding) assay, guinea pig brain homogenate, DPDPE (hot) / DADLE (cold)
Conditions: μ/δ
Measurement Type: Ki ratio μ/δ

Below are worked cases with known answers.
>>> result("CN1CC[C@]2(c3cccc(O)c3)Cc3[nH]c4ccccc4c3C[C@H]2C1 (relative stereo)")
"> 30.9"
>>> result("CN1CC[C@]2(c3cccc(O)c3)Cc3[nH]c4ccc(Cl)cc4c3C[C@H]2C1 (relative stereo)")
"> 24.9"

Query compound follows.
Measured on δ opioid receptor, Cc1ccc2[nH]c3c(c2c1)C[C@H]1CN(C)CC[C@]1(c1cccc(O)c1)C3 (relative stereo) has a documented Ki ratio μ/δ of > 9.35
